conditions: in acetonitrile, 288.15 K
measurement label: solubility (mole fraction)

[[record]]
compound_smiles = "OC[C@H]1O[C@@H](Oc2c(O)cc(O)cc2/C=C/c2ccc(O)cc2)[C@H](O)[C@@H](O)[C@@H]1O"
measurement_label = "solubility (mole fraction)"
recorded_result = 0.0043


----------
conditions: in ethyl acetate, 283.15 K
measurement label: solubility (mole fraction)

[[record]]
compound_smiles = "OC[C@H]1O[C@@H](Oc2c(O)cc(O)cc2/C=C/c2ccc(O)cc2)[C@H](O)[C@@H](O)[C@@H]1O"
measurement_label = "solubility (mole fraction)"
recorded_result = 0.00543


----------
conditions: in THF, 288.15 K
measurement label: solubility (mole fraction)

[[record]]
compound_smiles = "OC[C@H]1O[C@@H](Oc2c(O)cc(O)cc2/C=C/c2ccc(O)cc2)[C@H](O)[C@@H](O)[C@@H]1O"
recorded_result = 0.0191


----------
conditions: in DMF, 303.15 K
measurement label: solubility (mole fraction)

[[record]]
compound_smiles = "OC[C@H]1O[C@@H](Oc2c(O)cc(O)cc2/C=C/c2ccc(O)cc2)[C@H](O)[C@@H](O)[C@@H]1O"
measurement_label = "solubility (mole fraction)"
recorded_result = 0.0369


----------
settings: in DMF, 298.15 K
measurement label: solubility (mole fraction)

[[record]]
compound_smiles = "OC[C@H]1O[C@@H](Oc2c(O)cc(O)cc2/C=C/c2ccc(O)cc2)[C@H](O)[C@@H](O)[C@@H]1O"
measurement_label = "solubility (mole fraction)"
recorded_result = 0.0311


----------
conditions: in ethanol, 288.15 K
measurement label: solubility (mole fraction)

[[record]]
compound_smiles = "OC[C@H]1O[C@@H](Oc2c(O)cc(O)cc2/C=C/c2ccc(O)cc2)[C@H](O)[C@@H](O)[C@@H]1O"
recorded_result = 0.0108


----------
conditions: in acetone, 313.15 K
measurement label: solubility (mole fraction)

[[record]]
compound_smiles = "OC[C@H]1O[C@@H](Oc2c(O)cc(O)cc2/C=C/c2ccc(O)cc2)[C@H](O)[C@@H](O)[C@@H]1O"
recorded_result = 0.0443


----------
details: in isopropanol, 293.15 K
measurement label: solubility (mole fraction)

[[record]]
compound_smiles = "OC[C@H]1O[C@@H](Oc2c(O)cc(O)cc2/C=C/c2ccc(O)cc2)[C@H](O)[C@@H](O)[C@@H]1O"
recorded_result = 0.01


----------
conditions: in ethanol, 298.15 K
measurement label: solubility (mole fraction)

[[record]]
compound_smiles = "OC[C@H]1O[C@@H](Oc2c(O)cc(O)cc2/C=C/c2ccc(O)cc2)[C@H](O)[C@@H](O)[C@@H]1O"
measurement_label = "solubility (mole fraction)"
recorded_result = 0.0159


----------
details: in THF, 283.15 K
measurement label: solubility (mole fraction)

[[record]]
compound_smiles = "OC[C@H]1O[C@@H](Oc2c(O)cc(O)cc2/C=C/c2ccc(O)cc2)[C@H](O)[C@@H](O)[C@@H]1O"
recorded_result = 0.0157


----------
conditions: in acetonitrile, 313.15 K
measurement label: solubility (mole fraction)

[[record]]
compound_smiles = "OC[C@H]1O[C@@H](Oc2c(O)cc(O)cc2/C=C/c2ccc(O)cc2)[C@H](O)[C@@H](O)[C@@H]1O"
measurement_label = "solubility (mole fraction)"
recorded_result = 0.0111


----------
details: in isopropanol, 303.15 K
measurement label: solubility (mole fraction)

[[record]]
compound_smiles = "OC[C@H]1O[C@@H](Oc2c(O)cc(O)cc2/C=C/c2ccc(O)cc2)[C@H](O)[C@@H](O)[C@@H]1O"
measurement_label = "solubility (mole fraction)"
recorded_result = 0.0146

